# measurement-description: AUC in Lewis rat at 10 mg/kg, po
# Type: ADME, organism-based
# recorded-conditions: in vivo
outcome-measure: AUC (µM·h)
Your answer should be a plain number; it is taken to be in µM·h.

CCn1ccnc1[C@]1(CNC(=O)c2cc3cc(Cl)ccc3o2)NC(=O)NC1=O 20

# next molecule below
Ask | Any idea what its AUC is? The molecule is Cc1cnc([C@]2(CNC(=O)c3cc4cc(C(F)(F)F)ccc4o3)NC(=O)NC2=O)n1C
Reply | 21

---

# measurement-description: Solubility of the compound at pH 2.2
# Assay type: physicochemical
# recorded-conditions: buffer
outcome-measure: solubility (µg/mL)
Field: numeric (µg/mL). Do not append units.

Ask | Given Cn1ccnc1[C@]1(CNC(=O)c2cc3cc(C(F)(F)F)ccc3o2)NC(=O)NC1=O , state its recorded solubility.
Reply | 1750

---

# measurement-description: Plasma concentration in Lewis rat model of MIA at 4.3 mg/mL, sc administered through infusion pump post 3 days MIA induction
# Format: ADME, organism-based
outcome-measure: concentration at 72 h (nM)
Please respond with the number in nM and leave the unit unwritten.

Ask | Quick one: concentration at 72 h for Cn1ccnc1[C@]1(CNC(=O)c2cc3cc(C(F)(F)F)ccc3o2)NC(=O)NC1=O ?
Reply | 360

---

# measured-target: ADAMTS5 (Rattus norvegicus) (UniProt Q6TY19)
# Sequence (Q6TY19 as listed by the source): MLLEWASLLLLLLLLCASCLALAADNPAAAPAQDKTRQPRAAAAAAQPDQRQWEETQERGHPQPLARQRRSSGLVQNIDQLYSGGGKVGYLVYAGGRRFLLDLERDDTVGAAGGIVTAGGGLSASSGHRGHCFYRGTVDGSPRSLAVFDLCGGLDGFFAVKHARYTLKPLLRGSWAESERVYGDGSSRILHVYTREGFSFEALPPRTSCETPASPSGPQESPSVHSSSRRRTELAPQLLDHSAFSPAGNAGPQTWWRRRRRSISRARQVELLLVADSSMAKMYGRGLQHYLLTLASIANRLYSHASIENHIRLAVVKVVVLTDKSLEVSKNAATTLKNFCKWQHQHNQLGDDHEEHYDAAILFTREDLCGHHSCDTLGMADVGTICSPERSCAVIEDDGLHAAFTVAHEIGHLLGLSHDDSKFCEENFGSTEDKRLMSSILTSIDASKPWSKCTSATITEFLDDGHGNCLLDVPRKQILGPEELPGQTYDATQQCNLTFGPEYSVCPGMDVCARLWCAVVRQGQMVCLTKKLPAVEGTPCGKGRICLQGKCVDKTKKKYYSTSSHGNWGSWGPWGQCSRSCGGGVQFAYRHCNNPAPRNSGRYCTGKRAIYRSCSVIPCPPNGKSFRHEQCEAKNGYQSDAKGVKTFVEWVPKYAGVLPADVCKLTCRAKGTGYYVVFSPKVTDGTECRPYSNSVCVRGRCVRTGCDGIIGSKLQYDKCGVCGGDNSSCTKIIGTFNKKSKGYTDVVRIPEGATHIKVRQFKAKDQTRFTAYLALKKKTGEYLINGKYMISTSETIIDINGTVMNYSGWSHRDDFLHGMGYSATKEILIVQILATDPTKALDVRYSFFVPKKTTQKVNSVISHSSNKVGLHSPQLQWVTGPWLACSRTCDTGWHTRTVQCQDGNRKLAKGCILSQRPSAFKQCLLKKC
# measurement-description: Inhibition of rat ADAMTS5 using 43-mer VQTVTWPDMELPLPRNITEGEARGSVILTVKPIFEVSPSPLKG as substrate measured after 3 hrs by AlphaScreen assay
Active and inactive are the calls of the source. The calls are words filed in the database; no cut-off is given here.
outcome-measure: inhibition

A selection of reference data follows.
Cc1cnc([C@]2(CNC(=O)c3cc4cc(C(F)(F)F)ccc4o3)NC(=O)NC2=O)n1C Active
O=C1NC(=O)[C@](CNC(=O)c2cc3cc(C(F)(F)F)ccc3o2)(C2CC2)N1 Active
Cn1ccnc1[C@]1(CNC(=O)c2cc3cc(C(F)(F)F)ccc3o2)NC(=O)NC1=O Active
CCn1ccnc1[C@]1(CNC(=O)c2cc3cc(C(F)(F)F)ccc3o2)NC(=O)NC1=O Active
Cn1ccnc1[C@]1(CNC(=O)c2cc3cc(Cl)ccc3o2)NC(=O)NC1=O Active

Ask | inhibition for Cc1cnc([C@]2(CNC(=O)c3cc4cc(Cl)ccc4o3)NC(=O)NC2=O)n1C ?
Reply | Active

Ask | For the compound shown here, CCn1ccnc1[C@]1(CNC(=O)c2cc3cc(Cl)ccc3o2)NC(=O)NC1=O , give the reported inhibition.
Reply | Active

---

Each item that follows carries a reported pIC50.
Sequence of the target: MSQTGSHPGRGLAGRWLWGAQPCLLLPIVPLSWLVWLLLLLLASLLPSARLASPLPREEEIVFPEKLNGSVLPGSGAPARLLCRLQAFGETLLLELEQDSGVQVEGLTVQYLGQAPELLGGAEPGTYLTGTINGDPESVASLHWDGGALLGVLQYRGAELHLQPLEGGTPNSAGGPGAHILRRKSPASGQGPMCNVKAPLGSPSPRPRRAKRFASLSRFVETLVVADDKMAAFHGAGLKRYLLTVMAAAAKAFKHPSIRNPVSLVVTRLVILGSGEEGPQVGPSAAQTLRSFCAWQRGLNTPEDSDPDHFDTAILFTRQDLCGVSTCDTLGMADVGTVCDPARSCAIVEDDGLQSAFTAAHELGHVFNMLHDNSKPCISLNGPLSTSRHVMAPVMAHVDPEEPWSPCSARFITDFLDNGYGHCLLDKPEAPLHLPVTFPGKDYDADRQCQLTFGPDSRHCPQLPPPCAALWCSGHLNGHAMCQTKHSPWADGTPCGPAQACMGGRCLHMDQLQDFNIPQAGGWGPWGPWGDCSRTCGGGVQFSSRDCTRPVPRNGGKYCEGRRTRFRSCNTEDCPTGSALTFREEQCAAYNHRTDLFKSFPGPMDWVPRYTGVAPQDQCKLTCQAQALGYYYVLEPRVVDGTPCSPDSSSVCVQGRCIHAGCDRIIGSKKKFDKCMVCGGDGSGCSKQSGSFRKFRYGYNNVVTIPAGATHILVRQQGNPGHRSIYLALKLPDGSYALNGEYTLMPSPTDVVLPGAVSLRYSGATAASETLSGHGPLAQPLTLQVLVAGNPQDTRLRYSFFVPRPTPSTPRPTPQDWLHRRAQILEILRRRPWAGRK
// pIC50 here means minus log10 of the molar concentration (mol/L)

Before answering, review these 3 worked examples.
Cc1cnc([C@]2(CNC(=O)c3cc4cc(C(F)(F)F)ccc4o3)NC(=O)NC2=O)n1C 8.40
Cn1ccnc1[C@]1(CNC(=O)c2cc3cc(Cl)ccc3o2)NC(=O)NC1=O 8.52
CCn1ccnc1[C@]1(CNC(=O)c2cc3cc(C(F)(F)F)ccc3o2)NC(=O)NC1=O 8.40

Ask | So what does the record say about pIC50 for O=C1NC(=O)[C@](CNC(=O)c2cc3cc(C(F)(F)F)ccc3o2)(C2CC2)N1 ?
Reply | 8.22

Ask | Any idea what its pIC50 is? The compound is Cc1cnc([C@]2(CNC(=O)c3cc4cc(Cl)ccc4o3)NC(=O)NC2=O)n1C
Reply | 8.22

Ask | Request the reported pIC50 associated with CCn1ccnc1[C@]1(CNC(=O)c2cc3cc(Cl)ccc3o2)NC(=O)NC1=O
Reply | 8.10
